TARGET OR TEST SYSTEM: T1, SLC2A1 pseudotyped VLPs (Homo sapiens, UniProt P11166)
T1 sequence (P11166 1-492): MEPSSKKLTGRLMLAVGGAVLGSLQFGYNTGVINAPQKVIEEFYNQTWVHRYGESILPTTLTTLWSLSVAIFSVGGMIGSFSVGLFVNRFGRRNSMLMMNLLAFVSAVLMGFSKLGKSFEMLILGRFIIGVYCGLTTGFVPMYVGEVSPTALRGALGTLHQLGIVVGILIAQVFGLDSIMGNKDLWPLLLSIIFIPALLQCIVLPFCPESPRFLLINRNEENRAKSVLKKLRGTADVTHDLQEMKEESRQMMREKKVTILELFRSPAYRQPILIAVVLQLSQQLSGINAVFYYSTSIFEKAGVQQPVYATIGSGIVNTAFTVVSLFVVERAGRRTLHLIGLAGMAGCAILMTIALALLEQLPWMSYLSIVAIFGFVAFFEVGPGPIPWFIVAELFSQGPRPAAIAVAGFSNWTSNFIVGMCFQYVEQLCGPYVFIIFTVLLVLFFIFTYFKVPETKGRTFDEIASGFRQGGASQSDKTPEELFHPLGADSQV
METHOD: ELISA-based SLC2A1 VLP binding assay
COND: 5 μg/mL VLP coating, FIG. 1
MEASUREMENT TYPE: EC50 of binding to SLC2A1 VLPs

- MOLECULE: "1G2 #9 (antibody, V domains shown) VH: AVTLDESGGGLQTPGGALSLVCKASGFTFSTKGMGWVRQTPGKGLEWVAGISSMRRYTYYAPAVKGRATISRDNGQSTVRLQLSSLRAEDSGTYYCARDATYCSWTTSTCGWSGGTIDAWGHGTEVIVSS VL: ALTQPSSVSANPGETVKITCSGSSGSYGWYQQKSPGSAPVTVIYWDDERPSGIPSRFSGSASGSTATLTITGVQAEDEAVYFCGSIDSSVGYVGIFGAGTTLTVL"
  MEASUREMENT TYPE: "EC50 of binding to SLC2A1 VLPs"
  VAL: "low nanomolar"
- MOLECULE: "5G5 #30 (antibody, V domains shown) VH: AVTLDESGGGLQTPGGALSLVCKASGFTFSSHAIFWVRQAPDKGLEFVAAISSSSGSWTAYATVVKGRATISRDNGQSTVRLQLNNLRAEDTGTYYCAKAAGSACCYAGSIDAWGHGTEVIVSS VL: ALTQPSSVSANPGETVKITCSGGSGSSYYGWYQQKSPGSAPVTVIYYDDKRPSDIPSRFSGSKSGSTATLTITGVQVEDEAVYYCGTGDGSIAIFGAGTTLTVL"
  MEASUREMENT TYPE: "EC50 of binding to SLC2A1 VLPs"
  VAL: "low nanomolar"
- MOLECULE: "2A2 #12 (antibody, V domains shown) VH: AVTLDESGGGLQTPGGALSLVCKGSGFTFSTKGMMWVRQAPGKGLEWVAGISSMSRYTYYAPAVKGRATISRDNGQSAVRLQLSSLRAEDTGTYYCARDATYCSWTASTCGWSGGTIDAWGHGTEVIVSS VL: ALTQPSSVSANPGETVKITCSGGYSYYGTYYYSWYQQKSPGSAPVTLIYRNDKRPSDIPSRFSGSGSGSTSTLTITGVQAEDEAVYFCGSYDSSDSGIFGAGTTLTVL"
  MEASUREMENT TYPE: "EC50 of binding to SLC2A1 VLPs"
  VAL: "low nanomolar"

Data origin, for the record: patent US20260167712A1
